These entries and their values trace back to ChEMBL document CHEMBL4028866.

EXPERIMENT_NOTES: in vivo
CONDITION_NOTES: Sprague-Dawley, rat, iv, 1 mg/mg
MEASUREMENT_KIND: AUC(0-inf) (µg·h/mL)

1: CC(C)(C)c1cc(NC(=O)Nc2ccc(-c3cn4c(n3)sc3cc(OCCN5CCOCC5)ccc34)cc2)no1
2: CC(C)(C)c1cc(NC(=O)Nc2ccc(-n3nc(-c4ccc(OCCN5CCOCC5)cc4)c4c(N)ncnc43)cc2)no1
Between the entries labeled 1 and 2 , whose measured AUC(0-inf) is lower? Let me know the label of the one you choose. 2

====

EXPERIMENT_NOTES: in vivo
CONDITION_NOTES: Sprague-Dawley, rat, po, 10 mg/mg
MEASUREMENT_KIND: Tmax (h)

COMPOUND | Tmax / h
CC(C)(C)c1cc(NC(=O)Nc2ccc(-n3nc(-c4ccc(OCCN5CCOCC5)cc4)c4c(N)ncnc43)cc2)no1 | 6.66
CC(C)(C)c1cc(NC(=O)Nc2ccc(-c3cn4c(n3)sc3cc(OCCN5CCOCC5)ccc34)cc2)no1 [QUIZARTINIB] | 8

====

EXPERIMENT_NOTES: in vivo
CONDITION_NOTES: Sprague-Dawley, rat, iv, 1 mg/mg
MEASUREMENT_KIND: Vd (L/kg)
Report the value in L/kg with no unit label.

Return reported Vd. Input compound: CC(C)(C)c1cc(NC(=O)Nc2ccc(-c3cn4c(n3)sc3cc(OCCN5CCOCC5)ccc34)cc2)no1 [QUIZARTINIB] 3.53

====

EXPERIMENT_NOTES: in vivo
CONDITION_NOTES: Sprague-Dawley, rat, iv, 1 mg/mg
MEASUREMENT_KIND: MRT inf (h)

1: CC(C)(C)c1cc(NC(=O)Nc2ccc(-n3nc(-c4ccc(OCCN5CCOCC5)cc4)c4c(N)ncnc43)cc2)no1
2: CC(C)(C)c1cc(NC(=O)Nc2ccc(-c3cn4c(n3)sc3cc(OCCN5CCOCC5)ccc34)cc2)no1 [QUIZARTINIB]
Pick one: 1 or 2 . Which one has the lower reported MRT inf? Kindly give the label for the entry you pick. 1
(1: 3.13 h, 2: 5.83 h)

====

EXPERIMENT_NOTES: in vivo
CONDITION_NOTES: Sprague-Dawley, rat, po, 10 mg/mg
MEASUREMENT_KIND: CL/F (mL/min/kg)

a: CC(C)(C)c1cc(NC(=O)Nc2ccc(-c3cn4c(n3)sc3cc(OCCN5CCOCC5)ccc34)cc2)no1
b: CC(C)(C)c1cc(NC(=O)Nc2ccc(-n3nc(-c4ccc(OCCN5CCOCC5)cc4)c4c(N)ncnc43)cc2)no1
Which has the smaller recorded CL/F, a or b ? Pick one; state its label. b
(b: 0.193 mL/min/kg, a: 12.6 mL/min/kg)

====

EXPERIMENT_NOTES: in vivo
CONDITION_NOTES: Sprague-Dawley, rat, iv, 1 mg/mg
MEASUREMENT_KIND: AUC(0-t) (ng·h/mL)

1: CC(C)(C)c1cc(NC(=O)Nc2ccc(-n3nc(-c4ccc(OCCN5CCOCC5)cc4)c4c(N)ncnc43)cc2)no1
2: CC(C)(C)c1cc(NC(=O)Nc2ccc(-c3cn4c(n3)sc3cc(OCCN5CCOCC5)ccc34)cc2)no1 [QUIZARTINIB]
Pick one: 1 or 2 . Which one has the lower reported AUC(0-t)? The response must carry the label of the picked entry. 1
(1: 520 ng·h/mL, 2: 1930 ng·h/mL)
